Data credit: patent US20230203134A1

biological target: T1, SARS-CoV-2 N-terminal domain (NTD) (SARS-CoV-2, UniProt P0DTC2 14-290); experiment: quantitative ELISA
T1 construct: range 1-290
Property: binding result

Enquiry: Entry monoclonal antibody 2-15 (antibody, V domains shown, also called mAb 2-15; antibody number 2-15) VH: QVQLVQSGAEVKKPGASVRVSCKASGYTFTGYYMHWVRQAPGQGLEWMGWINPISDGTNYAQKFQGWVTMTRDTSISTVYMELSRLRSDDTAVYYCARGGSRCSGGNCYGWAYDAFDIWGQGTMITVSS VL: QSALTQPASVSGSPGQSITISCTGTSSDVGGYNFVSWYQQHPGKAPKLMIYDVSKRPSGVSNRFSGSKSGNTASLTISGLQAEDEADCYCSSYTSSSTFVFGTGTKVTVL needs its binding result filled in; supply it.
Return: no binding

Enquiry: Please look at this binder and report its binding result: monoclonal antibody 1-20 (antibody, V domains shown, also called mAb 1-20; antibody number 1-20) VH: EVQLVESGGGLIQPGGSLRLSCAASGLTVSSNYMSWVRQAPGKGLEWVSVIYSGGSTFYADSVKGRFTISRDNSKNTLYLQMNSLRAEDTAVYYCARDLFYYGMDVWGQGTTVTVSS VL: DIQLTQSPSFLSASVGDRVTITCRASQGISSYLAWYQQKPGKAPKLLIYAASTLQSGVPSRFSGSGSGTEFTLTISSLQPEDFATYYCQQLNSYPCFGPGTKVDIK
Return: no binding
